Target: recombinant human MNL phosphodiesterase PDE IV B (Homo sapiens)
Sequence (Q07343 whole entry): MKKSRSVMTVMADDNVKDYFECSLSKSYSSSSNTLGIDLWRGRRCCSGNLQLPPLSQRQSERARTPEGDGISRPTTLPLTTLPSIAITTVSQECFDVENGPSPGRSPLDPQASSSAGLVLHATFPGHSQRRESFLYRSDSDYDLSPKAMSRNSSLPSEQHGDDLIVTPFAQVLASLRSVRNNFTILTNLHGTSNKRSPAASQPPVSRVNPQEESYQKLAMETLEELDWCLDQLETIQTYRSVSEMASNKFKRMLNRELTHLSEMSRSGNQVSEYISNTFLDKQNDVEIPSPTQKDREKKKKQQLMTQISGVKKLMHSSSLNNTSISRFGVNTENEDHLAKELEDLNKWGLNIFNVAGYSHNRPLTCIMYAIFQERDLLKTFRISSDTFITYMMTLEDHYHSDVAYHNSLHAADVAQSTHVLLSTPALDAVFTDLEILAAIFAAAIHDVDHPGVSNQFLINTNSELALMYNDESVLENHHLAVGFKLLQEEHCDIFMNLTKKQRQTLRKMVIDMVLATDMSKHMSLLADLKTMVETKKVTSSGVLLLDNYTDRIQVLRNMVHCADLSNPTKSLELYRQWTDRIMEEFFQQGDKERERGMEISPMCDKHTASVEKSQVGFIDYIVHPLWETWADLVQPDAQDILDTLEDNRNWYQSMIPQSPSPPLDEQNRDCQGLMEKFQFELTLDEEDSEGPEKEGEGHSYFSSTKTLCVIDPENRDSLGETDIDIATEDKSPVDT
Assay: Inhibition of recombinant human mononuclear lymphocyte (MNL) phosphodiesterase type IV B produced in insect cells with a baculovirus vector
Settings: 3H-cAMP 0.8 μM, 10 minutes, 37° C., pH 8, DMSO 1%
metric: IC50 (nM)

Example results:
# compound, measValue
records = [
    ("CC(Cn1cc[nH]c1=NC#N)c1ccc(OC(F)F)c(OCC2CC2)c1 (centres unmarked) [Compound 6]", 22.4),
    ("COc1ccc(C(C)Cn2cc[nH]c2=NC#N)cc1OCCCCCc1ccccc1 (centres unmarked) [Compound 9]", 36.1),
    ("COc1ccc(C(C)Cn2ccnc2NC#N)cc1OCC1CC1 (single isomer, unassigned) [Compound 15]", 33.5),
    ("CC(Cn1ccnc1NC#N)c1ccc(OC(F)F)c(OCCCCCc2ccccc2)c1 (centres unmarked) [Compound 11]", 32.7),
    ("COc1ccc(C(C)Cn2ccnc2NC#N)cc1OCC1CC1 (single isomer, unassigned) [Compound 14]", 27.2),
]

[A] COc1ccc(C(C)Cn2ccnc2NC#N)cc1OCCCCCc1ccccc1 (single isomer, unassigned) [Compound 19]
[B] COc1ccc(C(C)Cn2ccnc2NC#N)cc1OC1CCCC1 (single isomer, unassigned) [Compound 13]
[C] COc1ccc(C(C)CN2CCNC2=NC#N)cc1OC1CCCC1 (racemic) [Compound 1]
**Q:** Please order the records by their reported IC50, lowest number first. Arrange the labels as the request states and list them.
**A:** B, A, C

----------
Target: recombinant human MNL phosphodiesterase PDE IV B (Homo sapiens)
Experiment: Inhibition of recombinant human mononuclear lymphocyte (MNL) phosphodiesterase type IV B produced in insect cells with a baculovirus vector
Details: 3H-cAMP 0.8 μM, 10 minutes, 37° C., pH 8, DMSO 1%
pIC50: −log10 of the molar value.
metric: pIC50

[I] COc1ccc(C(C)Cn2ccnc2NC#N)cc1OCCCCCc1ccccc1 (single isomer, unassigned) [Compound 18]
[II] COc1ccc(C(C)Cn2ccnc2NC#N)cc1OC1CCCC1 (single isomer, unassigned) [Compound 12]
**Q:** Select the item with the higher value of pIC50 from the options I and II listed. # reply format: chosen label
**A:** II
(II: 7.66, I: 7.39)

[a] COc1ccc(C(C)Cn2cc[nH]c2=NC#N)cc1OC1CCOC1 (stereo not shown) [Compound 10]
[b] CC(Cn1cc[nH]c1=NC#N)c1ccc(OC(F)F)c(OC2CCOC2)c1 (racemic) [Compound 2]
**Q:** Given a and given b , which shows the smaller recorded pIC50? # reply format: chosen label
**A:** a

Values from patent US6051718A
